Molecular target: recombinant HarmOBP10 (Helicoverpa armigera, UniProt G9I573)
Sequence (G9I573 entry or part of it): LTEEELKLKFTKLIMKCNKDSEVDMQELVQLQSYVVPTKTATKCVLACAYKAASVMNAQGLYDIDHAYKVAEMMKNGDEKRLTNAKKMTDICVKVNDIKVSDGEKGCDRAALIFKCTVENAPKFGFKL
Assay: Competitive fluorescence binding assay (displacement of 1-NPN from HarmOBP10)
Conditions: protein and 1-NPN both 2 µM, Tris pH 7.4; unit from method text, not in table; read-out: IC50 (concentration of ligand halving the initial fluorescence value)
Procedure: Emission fluorescence spectra were recorded on a Hitachi F-4500 at 25°C in a right angle configuration, with a 1 cm light path quartz cuvette and 5 nm slits for both excitation and emission. The protein was dissolved in 50 mM Tris-HCl buffer, pH 7.4, while ligands were added as 1 mM methanol solutions. The probe was excited at 337 nm and emission spectra were recorded between 380 and 450 nm. […]
Property: IC50 (µM)
Form entry: value (µM) — number only.

Would you please look over these solved cases?
Molecule | IC50 [µM]
CCCCCCCCOC(=O)c1ccccc1 [n-Octyl benzoate] | 4
CCCCCCCCCC(=O)OCC [Ethyl decanoate] | 5.5
COC(C=O)=Cc1ccccc1 | 12.5
CC(C)(C)c1ccc(C(=O)c2ccccc2)cc1 | 3.3
CC(C)CCCC(C)CCOC(=O)c1ccccc1 (centres unmarked) [3,7-Dimethyloctyl benzoate] | 6

Requested read-out: IC50. Entry: CCCCOC(=O)c1ccc(C(C)(C)C)cc1 [Butyl p-tert-butylbenzoate] 14

Requested read-out: IC50. Entry: CCCCOC(=O)C=Cc1ccccc1 [n-Butyl cinnamate] 12.5

Requested read-out: IC50. Entry: CC(CC=O)CCCC(C)(C)O (centres unmarked) [Hydroxycitronellal] 13.5

Requested read-out: IC50. Entry: CCCCC/C(C=O)=C/c1ccccc1 3.5

Requested read-out: IC50. Entry: CCCCCCOC(=O)c1ccccc1 [n-Hexyl benzoate] 7.5

Requested read-out: IC50. Entry: CC(CCCC(C)(C)O)CC(=O)O (centres unmarked) [Hydroxycitronellic acid] 16
